# TESTED TARGET: T1, monkey NKG2A/CD94 on the cell surface (CHOk1-cNKG2A/CD94 stable cell line) (macaque, UniProt Q9MZJ3 1-233; Q9MZK9 1-179)
# T1 construct: also called macaque NKG2A; cyno NKG2A
# T1 sequence (Q9MZJ3 other isoform, or with tags, fused parts or gaps, chain 1 of 2): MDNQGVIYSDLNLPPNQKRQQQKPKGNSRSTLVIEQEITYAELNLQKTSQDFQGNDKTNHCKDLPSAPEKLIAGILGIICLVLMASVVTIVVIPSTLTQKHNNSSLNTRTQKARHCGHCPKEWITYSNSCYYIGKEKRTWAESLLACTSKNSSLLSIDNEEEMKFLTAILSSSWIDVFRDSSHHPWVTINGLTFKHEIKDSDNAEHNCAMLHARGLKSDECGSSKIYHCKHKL
# T1 sequence (Q9MZK9 whole entry, chain 2 of 2): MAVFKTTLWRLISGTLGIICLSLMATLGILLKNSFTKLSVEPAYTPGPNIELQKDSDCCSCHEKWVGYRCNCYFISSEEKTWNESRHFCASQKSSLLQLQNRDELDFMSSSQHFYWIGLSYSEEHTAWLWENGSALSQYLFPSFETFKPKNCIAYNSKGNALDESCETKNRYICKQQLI
# ASSAY TEXT: FACS on CHOK1-cNKG2A/CD94 cells, Alexa 488 secondary antibody
Quick reference: EC50 (read off the curve) of the listed items.

| BINDER | EC50 (read off the curve) |
| --- | --- |
| Tab1 (Z270) (antibody, V domains shown) VH: EVQLVESGGGLVKPGGSLRLSCAASGFTFSSHSMNWVRQAPGKGLEWVSAISSSSSYIYYADSVKGRFTISRDNAKNSLYLQMNSLRAEDTAVYYCAREEWGLPFDYWGQGTLVTVSS VL: AIQLTQSPSSLSASVGDRVTITCRASQGISSALAWYQQKPGKAPKLLIYDASSLKSGVPSRFSGSGSGTDFTLTISSLQPEDFATYYCQQFNSYPLTFGQGTRLEIK | ~2 nM |
| Mab033 (antibody, V domains shown) VH: EVQLQQSVAEFVRPGASVRLSCTASGFNIENTYIHWLKQRPEQGLEWIGRIDPANGDTQYDPKFQGKATLTAATSSNTAYLQLSGLTSEDTAIYYCTRYGDYLFYYSLKYWGQGTSVTVSS VL: DIVMTQAAPSVSVTPGESVSISCRSSKSLLHSNGNTYLYWFLQRPGQSPQLLIYRMSNLASGVPDRFSGSGSGTAFTLRISRVEAEDVGVYYCMQHLESPYTFGGGTKLEIK | ~1 nM |
| Mpb416 (antibody, V domains shown, also called 12G8 (as full antibody)) VH: QVQLQQSVAELVRPGASVKLSCTASGFNIQNTYIHWVKQRPEQGLEWIGKIDPANGDTKYAPTFQGKATITADTSSNTAYLQLSSLTPEDTAIYYCARYRDYLFYYALGYWGQGTSVTVSS VL: DIVMTQSAPSVPVTPGESVSISCRSSKSLLHSNGNTYLYWFLQRPGQSPQLLIYRMSNLASGVPDRFSGSGSGTAFTLRISRVEAEDVGVYYCMQHLEYPYTFGGGTKLEIK | ~0.7 nM |
| Mab032 (antibody, V domains shown) VH: EVQLQQSVAELVRPGASVRLSCTGSGFNIENTYMHWLKQRPEQGLEWIGRIDPADGDTQYAPKFQGKATITTDTSSNTAYLQLSSLTSEDTAIYYCARYGNYLFYYSMDYWGQGTSVTVSS VL: DIVMTQAAPSVPVTPGESVSISCRSSKSLLHSNGNTYLYWFLQRPGQSPQLLIYRMSNLASGVPDRFSGSGSATAFTLRISRVEAEDVGIYYCMQHLEYPYTFGGGTKLEIK | ~1 nM |
| Mab031 (antibody, V domains shown) VH: EVQLQQSVAELVRPGASVRLSCTGSGFNIQNTYIHWVKQRPEQGLEWIGRIDPANGDTKYAPKFQGKATITADTSSNTAYLQLSSLTSEDTAIYYCTRYGNYLYYYSLDYWGQGTSVTVSS VL: DIVMTQAAPSVPVTPGESVSISCRSSKSLLHSNGNTYLYWFLQRPGQSPQLLIYRMSNLASGVPDRFSGSGSGTAFTLRISRVEAEDMGVYYCMQHLEYPYTFGGGTKLEIK | ~1 nM |
